# systemTested: T1, GLP-1R in the INS1e assay (UniProt P32301 22-463, limits assumed)
# T1 sequence (looked up): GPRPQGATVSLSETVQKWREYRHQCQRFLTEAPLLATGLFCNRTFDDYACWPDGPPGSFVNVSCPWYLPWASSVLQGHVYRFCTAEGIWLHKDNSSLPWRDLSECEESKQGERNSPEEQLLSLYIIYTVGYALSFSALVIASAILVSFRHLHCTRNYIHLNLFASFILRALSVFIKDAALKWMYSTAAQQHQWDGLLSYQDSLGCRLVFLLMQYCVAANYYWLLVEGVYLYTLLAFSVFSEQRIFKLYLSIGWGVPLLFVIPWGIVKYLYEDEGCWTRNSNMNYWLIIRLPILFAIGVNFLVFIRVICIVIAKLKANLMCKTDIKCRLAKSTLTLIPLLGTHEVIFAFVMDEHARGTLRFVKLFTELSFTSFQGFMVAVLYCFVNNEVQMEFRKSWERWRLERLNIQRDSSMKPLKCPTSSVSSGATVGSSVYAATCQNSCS
# assayNotes: cell-based or functional assay
Starred links: 1 amine or outer side, 2 acyl side, 3 side chain; linkers in the order of their positions; H or OH if unused. Non-standard residues stand in square brackets, D forms with d. Groups on a side chain read outwards from the residue. Primed or numbered codes have the meaning given here. No end group written: not given here. *: point of attachment. γGlu = O=C(O)[C@H](CCC(=O)[*:2])N[*:1]; Palmitoyl = CCCCCCCCCCCCCCCC(=O)*; αMeF = C[C@](N)(Cc1ccccc1)C(=O)O; Myristoyl = CCCCCCCCCCCCCC(=O)*; αMeK = C[C@](N)(CCCCN)C(=O)O; Lauroyl = CCCCCCCCCCCC(=O)*; αMeS = C[C@](N)(CO)C(=O)O; PEG2′ = not defined here; Aib = CC(C)(N)C(=O)O
property: INS1e assay EC50 (cAMP) n1 (nM)
Just the number in nM, nothing appended.

{"binder": "H[Aib]EGS[αMeF]TSDV[αMeS]SK([PEG2′-PEG2′-γGlu-Palmitoyl])LEGEAA[αMeK]E[αMeF]IAK([PEG2′-PEG2′-γGlu-Palmitoyl])VVEGG-NH2 [SEQ ID NO: 409]", "INS1e assay EC50 (cAMP) n1 (nM)": 0.183}
{"binder": "H[Aib]EGS[αMeF]TSDVSK([PEG2′-PEG2′-γGlu-Palmitoyl])FLEGEAAEEFIK([PEG2′-PEG2′-γGlu-Palmitoyl])FVVEGG-NH2 [SEQ ID NO: 247]", "INS1e assay EC50 (cAMP) n1 (nM)": 72.1}
{"binder": "H[Aib]EGS[αMeF]TSDV[αMeS]SK([PEG2′-PEG2′-γGlu-Lauroyl])LEGEAA[αMeK]E[αMeF]IAK([PEG2′-PEG2′-γGlu-Lauroyl])VVEGG-NH2 [SEQ ID NO: 405]", "INS1e assay EC50 (cAMP) n1 (nM)": 0.11}
{"binder": "H[Aib]EGS[αMeF]TSDV[αMeS]SYK([PEG2′-PEG2′-γGlu-Lauroyl])EGEAA[αMeK]EFIAWK([PEG2′-PEG2′-γGlu-Lauroyl])VEGG-NH2 [SEQ ID NO: 270]", "INS1e assay EC50 (cAMP) n1 (nM)": 1.41}

Q. Quick check: INS1e assay EC50 (cAMP) n1 of H[Aib]EGS[αMeF]TSDVSK([PEG2′-PEG2′-γGlu-Lauroyl])YLEGEAA[αMeK]EFIAWK([PEG2′-PEG2′-γGlu-Lauroyl])VEGG-NH2 [SEQ ID NO: 253] ?
A. 2.08

Q. Quick check: INS1e assay EC50 (cAMP) n1 of H[Aib]EGTFTSDVSK([PEG2′-PEG2′-γGlu-Lauroyl])FLEGEAAEEFIK([PEG2′-PEG2′-γGlu-Lauroyl])WVVEGG-NH2 [SEQ ID NO: 237] ?
A. 14.3

Q. Quick check: INS1e assay EC50 (cAMP) n1 of H[Aib]EGS[αMeF]TSDV[αMeS]SK([PEG2′-PEG2′-γGlu-Myristoyl])LEGEAA[αMeK]E[αMeF]IAK([PEG2′-PEG2′-γGlu-Myristoyl])VVEGG-NH2 [SEQ ID NO: 408] ?
A. 0.376

Q. Quick check: INS1e assay EC50 (cAMP) n1 of H[Aib]EGS[αMeF]TSDK([PEG2′-PEG2′-γGlu-Lauroyl])SSYLEGEAA[αMeK]EFIK([PEG2′-PEG2′-γGlu-Lauroyl])WVVEGG-NH2 [SEQ ID NO: 256] ?
A. 1.25
